Reported PO4 binding values are given for each entry in this list.
- setup conditions: 4.0 mL PBS + 20 mg binder, mixed 1 h at room temperature; hypothetical results; dihydrate
Write the value in mg/g as a bare number.

molecule | PO4 binding [mg/g]
O=C1C[NH][Mg]2([OH])([OH])([NH]CC(=O)[O]2)[O]1 [Sample 2, magnesium glycinate dihydrate] | 177.0
O=C1C[NH][Mg]2([OH])([OH])([NH]CC(=O)[O]2)[O]1 [Sample 1, magnesium glycinate dihydrate] | 175.0
O=C1C[NH][Mg]2([OH])([OH])([NH]CC(=O)[O]2)[O]1 [Sample 4, magnesium glycinate dihydrate] | 178.1

Continue with the molecule presented below.
Check the records and state PO4 binding for O=C1C[NH][Mg]2([OH])([OH])([NH]CC(=O)[O]2)[O]1 [Sample 3, magnesium glycinate dihydrate]
176.2
